All values here come from PubChem BioAssay (NCATS).

# measured_on: Bile acid receptor (Homo sapiens) (UniProt Q96RI1)
# Sequence (Q96RI1 whole entry, looked up): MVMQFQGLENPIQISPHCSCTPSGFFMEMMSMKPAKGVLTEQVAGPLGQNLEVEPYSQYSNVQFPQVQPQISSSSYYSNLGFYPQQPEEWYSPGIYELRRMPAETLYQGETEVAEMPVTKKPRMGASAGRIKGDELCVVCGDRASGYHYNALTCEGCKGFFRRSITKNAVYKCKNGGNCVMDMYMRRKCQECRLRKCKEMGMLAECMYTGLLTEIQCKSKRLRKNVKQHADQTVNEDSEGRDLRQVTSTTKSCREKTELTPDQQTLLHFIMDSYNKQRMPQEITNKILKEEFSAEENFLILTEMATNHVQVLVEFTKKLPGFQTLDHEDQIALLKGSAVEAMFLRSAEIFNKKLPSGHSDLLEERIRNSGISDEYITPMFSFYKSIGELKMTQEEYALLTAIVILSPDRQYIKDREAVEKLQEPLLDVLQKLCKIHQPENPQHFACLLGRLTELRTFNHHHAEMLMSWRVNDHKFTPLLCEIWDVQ
# experimental_protocol: qHTS assay for small molecule agonists of farnesoid X receptor signaling (AID 588527);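 note: 0% = vehicle basal and 100% = reference agonist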
# run_parameters: HEK293T FXR-UAS-bla, beta-lactamase ratio, 16 h; hits give high values
# From the text: NIH Chemical Genomics Center [NCGC] U.S. Environmental Protection Agency [EPA] National Institutes of Environmental Health Sciences [NIEHS] National Toxicology Program [NTP] […] NCGC Assay Protocol Summary Using a beta-lactamase reporter-gene under control of Farnesoid X receptor (FXR) response element, a cell-based assay [GeneBLAzer FXR-UAS-bla assay developed by Invitrogen] was used to measure FXR ligands signaling. […] Detection; Fluorescence; Envision plate reader
Records with an inconclusive call do not appear.
# Lookup of reported activation keyed by entry
measurement_label: activation (%)

| molecule | unit_info | value_observed |
| --- | --- | --- |
| Oc1cc(Cl)c(Cl)c(Cl)c1 | % | 3.7 |
| CC(=O)NNc1ccccc1 | % | -3.51 |
| BrC(Br)Br | % | -2.73 |
| O=C(Cc1ccccc1)OCc1ccccc1 | % | -3.22 |
| Cc1ccc(N)c(C)c1 | % | 3.12 |
| FC(Cl)(Cl)Cl | % | -3.19 |
| N#CC(Br)Br | % | -0.424 |
| CCOS(C)(=O)=O | % | 1.7 |
| [O-][Cl+2]([O-])O | % | -2.85 |
| CN(C)c1ccccc1 | % | -2.07 |
| COC(=O)Nc1cccc(OC(=O)Nc2cccc(C)c2)c1 | % | 0.654 |
| N#CC(Cl)(Cl)Cl | % | -1.65 |
| N#CC(O)c1ccccc1 (configuration not stated) | % | -0.559 |
| N#CCCC#N | % | -0.443 |
| ClCCOCOCCCl | % | 0.794 |
| O=C(Cl)c1ccccc1F | % | 2.29 |
| O=[N+]([O-])c1cc(Cl)c(Cl)c(Cl)c1 | % | -2.43 |

---

# experimental_protocol: Cell Viability - LYMP2-003 (AID 965);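 note: cells exposed to compounds for 24 h before reading; 0% = DMSO only and full effect = 92 µM tetraoctylammonium bromide; nearly all actives have a fitted effect of over 50% in size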
# run_parameters: LYMP2-003 lymphoblastoid cell viability; series mostly up to 92.2 µM
Inconclusive results are not listed. Calls of active or inactive are those of the source. Calls follow the shape of the dose curve; as a rule, active = well fitted cell-killing curve with a large enough effect; inconclusive = small, poorly fitted or top-dose-only effect, or effect the other way; inactive = flat fitted curve, though single readings scatter.

| smiles_input | outcome |
| --- | --- |
| Brc1cccc(-c2ccccc2)c1 | inactive |
| COC(=O)c1ccccc1N | inactive |
| Oc1cc(Cl)c(Cl)c(Cl)c1Cl | inactive |
| CC(C)[N+](=O)[O-] | inactive |
| C=CC#N | inactive |
| Cc1ccc(N)cc1Cl | inactive |
| CCC[N+](=O)[O-] | inactive |
| COc1ccccc1N | inactive |
| O=c1ccc(=O)[nH][nH]1 | inactive |

---

# experimental_protocol: AP1 Signaling Pathway (AID 357);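 note: ME-180 reporter cells stimulated with EGF at its EC50 level; % is set by controls: 0 for no effect and ±100 for the full control effect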
# run_parameters: ME-180 AP-1-bla reporter, EGF-induced, beta-lactamase ratio, 5 h; at 7.69 µM (top of the series) unless noted
Results filed as inconclusive are left out.

| smiles_input | unit_info | activity change, negative = inhibition |
| --- | --- | --- |
| COc1cccc2c1C(=O)c1c(O)c3c(c(O)c1C2=O)C[C@](O)(/C(C)=N\O)C[C@@H]3O[C@H]1C[C@H](N)[C@@H](O)[C@H](C)O1 | % | 26.1 |
| NCCP(=O)(O)O | % | 3.81 |
| CC(C)c1nccn1Cc1ccc(Cl)cc1Cl | % | -14.8 |
| CO[C@H]1[C@H](O)[C@H](O[C@@H]2[C@H](Oc3cccc4c(O)c5c(=O)oc6ccc(C)c7c(=O)oc(c34)c5c67)O[C@@H](C)[C@H](O)[C@H]2O)O[C@@H](C)[C@@H]1O | % | 1.4 |
| Cc1ncc([N+](=O)[O-])n1CCN=[N+]=[N-] | % | 3.02 |
| C[C@@]12CC[C@H](O[C@@H]3O[C@H](CO)[C@@H](O)[C@H](O)[C@@H]3O)C[C@@H]1CC[C@H]1[C@H]2CC[C@@]2(C)[C@@H](C3=CCOC3=O)CC[C@]12O | % | -9.15 |
| CC[C@@](O)(C(=O)O)c1cc2n(c(=O)c1CO)Cc1cc3ccccc3nc1-2 | % | 0.967 |
| CCOC(=O)c1ccc2[nH]c(-c3ccc(S(=O)(=O)F)cc3)cc(=O)c2c1 | % | -7.65 |

---

# measured_on: Glucocorticoid receptor (Homo sapiens) (UniProt P04150)
# Sequence (P04150 whole entry, looked up): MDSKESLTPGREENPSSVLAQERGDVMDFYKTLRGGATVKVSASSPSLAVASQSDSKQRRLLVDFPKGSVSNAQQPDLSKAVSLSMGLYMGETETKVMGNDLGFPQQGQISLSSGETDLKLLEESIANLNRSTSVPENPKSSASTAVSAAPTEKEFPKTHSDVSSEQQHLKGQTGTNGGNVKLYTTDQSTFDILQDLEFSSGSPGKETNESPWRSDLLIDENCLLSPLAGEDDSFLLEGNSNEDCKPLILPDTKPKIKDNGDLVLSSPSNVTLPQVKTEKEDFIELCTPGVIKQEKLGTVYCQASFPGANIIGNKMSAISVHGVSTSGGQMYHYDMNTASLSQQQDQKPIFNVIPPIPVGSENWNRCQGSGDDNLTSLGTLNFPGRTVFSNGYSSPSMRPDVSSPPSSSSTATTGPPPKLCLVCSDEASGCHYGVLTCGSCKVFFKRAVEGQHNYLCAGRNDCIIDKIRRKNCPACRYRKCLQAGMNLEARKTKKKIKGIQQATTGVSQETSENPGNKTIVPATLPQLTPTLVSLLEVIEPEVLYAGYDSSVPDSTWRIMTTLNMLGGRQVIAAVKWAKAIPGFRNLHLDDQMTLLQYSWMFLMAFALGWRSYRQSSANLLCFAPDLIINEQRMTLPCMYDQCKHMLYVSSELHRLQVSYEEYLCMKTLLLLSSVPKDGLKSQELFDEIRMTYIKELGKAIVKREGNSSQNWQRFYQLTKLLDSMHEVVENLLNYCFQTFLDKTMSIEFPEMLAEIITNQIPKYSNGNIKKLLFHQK
# experimental_protocol: GR-EFC Redistribution (AID 451); note: potency is the fitted concentration of half-maximal effect
# run_parameters: CHO-K1 GR-EFC translocation, beta-gal luminescence, 2 h
The source made the active and inactive calls. The call rests on the fitted dose curve.
# Lookup of reported Potency keyed by entry
measurement_label: Potency

| smiles_input | measurement_label | value_observed |
| --- | --- | --- |
| C[C@]12CC[C@H](O)CC1=CC[C@@H]1[C@H]2CC[C@]2(C)C(=O)CC[C@H]12 | Potency | > 46 µM (inactive) |
| NC[C@@H](O)CSP(=O)(O)O | Potency | > 9.22 µM (inactive) |
| N[C@@H](Cc1cc(Br)c(O)c(Br)c1)C(=O)O | Potency | > 9.22 µM (inactive) |
| CC(C)(C)C(=O)CP(=O)(O)O | Potency | > 9.22 µM (inactive) |
| c1cc(CCN2CCCCC2)ccn1 | Potency | > 9.22 µM (inactive) |
| C[C@@H]1[C@H]2C=C[C@@H]1[C@@H](c1c3ccc(=O)c(O)c-3oc3c(O)c(O)ccc13)[C@@H]2C(=O)O | Potency | > 9.22 µM (inactive) |
| O=C(O)CN1C(=O)CN=C(c2ccccn2)c2cc(Cl)ccc21 | Potency | > 9.22 µM (inactive) |
| CC(C)[C@@]1(NC(=O)[C@H]2C[C@H]3c4cccc5[nH]cc(c45)C[C@@H]3N(C)C2)O[C@]2(O)[C@H]3CCCN3C(=O)[C@H](Cc3ccccc3)N2C1=O | Potency | > 46 µM (inactive) |
| CC(C)N[C@@H](C)Cc1ccc(I)cc1 | Potency | > 46 µM (inactive) |
| NCCCN1CCN(c2ccccc2)CC1 | Potency | > 9.22 µM (inactive) |
| NC(CCl)=N[C@H]1CN2CCC1CC2 | Potency | > 9.22 µM (inactive) |

---

# experimental_protocol: AP1 Signaling Pathway (AID 357);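 note: ME-180 reporter cells stimulated with EGF at its EC50 level; % is set by controls: 0 for no effect and ±100 for the full control effect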
# run_parameters: ME-180 (cervical carcinoma) AP-1-bla reporter, EGF-induced, beta-lactamase ratio, 5 h; at 7.69 µM (top of the series) unless noted
Inconclusive results are not listed. Active and inactive are the calls of the source. Calls come from the whole dose curve; as a rule, active = well fitted curve in either direction with a large enough effect (not every such curve was filed as active); inconclusive = small, poorly fitted or top-dose-only effect, or another doubt; inactive = flat fitted curve, though single readings scatter.

| smiles_input | activity change, negative = inhibition |
| --- | --- |
| CC(C)N[C@@H](C)Cc1ccc(I)cc1 | 17.5% [at 38 µM] (inactive) |
| CN(C)CS/C(N)=N/[C@H](O)C(Cl)(Cl)Cl | 1.46% (inactive) |
| Nc1ncnc2c1ncn2[C@@H]1O[C@@H](COP(=O)(O)CP(=O)(O)OP(=O)(O)O)[C@H](O)[C@@H]1O | -0.584% [at 38 µM] (inactive) |
| O=C(O)C[C@H]1OCC=C2CN3CC[C@@]45C6=CC(=O)C(=O)C([N+](=O)[O-])=C6N[C@H]4[C@H]1[C@H]2C[C@@H]35 | 4.93% (inactive) |
| N[C@@H](Cc1c[nH]c2cc([N+](=O)[O-])ccc12)C(=O)O | -8.44% (inactive) |

---

# experimental_protocol: qHTS assay for small molecule agonists of the antioxidant response element (ARE) signaling pathway measured by Nrf2-dependant transcriptional activity - cell viability counter screen (AID 720653); note: % is set by controls: 0 for no effect and ±100 for the full control effect
# run_parameters: ARE-bla HepG2 viability, CellTiter-Glo ATP luminescence, 16 h; hits give low values
Results filed as inconclusive are left out. Activity calls are given as the source filed them. Calls follow the shape of the dose curve; as a rule, active = well fitted cell-killing curve with a large enough effect in the repeat runs; inconclusive = weak or mixed curves; inactive = flat fitted curve, though single readings scatter.
# Lookup of reported max response keyed by entry

| smiles_input | max response |
| --- | --- |
| Cc1ccccc1[N+](=O)[O-] | 11.5% (inactive) |
| C=CCc1cc(OC)c2c(c1)OCO2 | -2.49% (inactive) |
| O=[N+]([O-])c1cccc(O)c1 | -0.267% (inactive) |
| O=S(=O)(O)F | -6.55% (inactive) |
| O=C(O)CCl | 1.47% (inactive) |
| Cc1ccc(N)cc1Cl | 7.4% (inactive) |
| Nc1cc(Cl)ccc1Cl | 5.24% (inactive) |
| C[N+](=O)[O-] | -1.82% (inactive) |
| CC(C)C#N | 1.74% (inactive) |
| [C-]1=CC=CC1.[C-]1=CC=CC1.[Cl-].[Cl-].[Ti+4] | -7.58% (inactive) |
| COc1ccc(C=O)cc1 | 7.96% (inactive) |
| O=P(OCCCl)(OCCCl)OCCCl | 4.31% (inactive) |
| BrCCc1ccccc1 | -7.12% (inactive) |
| Cc1cccc(N)c1C | 1.88% (inactive) |
| Nc1cccc(Cl)c1 | 2.22% (inactive) |
| Cc1ccc(N)c(C)c1 | -6.08% (inactive) |
| CCOP(=S)(OCC)Oc1nc(Cl)c(Cl)cc1Cl | 0.0448% (inactive) [middle of 4 runs] |
